Item-by-item account of Population Tubulin-Different-Phenotype (%)
# Tested on: U2OS
# protocol-details: Multiplex assay against U2OS
# Assay type: toxicity, cell-based
# condition-info: human, 24 h, 1 µM, compound concentration 1 uM, replicate 2
// note: answer is a bare numeric in %

CC[C@H](C)C(=O)O[C@H]1C[C@@H](C)C=C2C=C[C@H](C)[C@H](CC[C@@H]3C[C@@H](O)CC(=O)O3)[C@H]21 ... 4

# input Please report the recorded Population Tubulin-Different-Phenotype (%) for COc1ncc(-c2ccc3nccc(-c4ccnnc4)c3c2)cc1NS(=O)(=O)c1ccc(F)cc1F .
# output 37

# input Look up Population Tubulin-Different-Phenotype (%) for this molecule: CC(C)NCC(O)COc1ccc(CCOCC2CC2)cc1.Cl (stereo unspecified) [BETAXOLOL HYDROCHLORIDE]
# output 2

# input Entry CN1CCCC(n2nc(Cc3ccc(Cl)cc3)c3ccccc3c2=O)CC1.Cl (stereo unspecified) [AZELASTINE HYDROCHLORIDE] has what Population Tubulin-Different-Phenotype (%)?
# output 50

# input Entry CN1CCN(c2ccc(OC(F)(F)F)c(Nc3ncc4c(n3)-c3c(c(C(N)=O)nn3CCO)CC4)c2)CC1 has what Population Tubulin-Different-Phenotype (%)?
# output 11

# input Given the entry CN(C)CC#Cc1ccc(OCCCc2sc(N3CCc4cccc(C(=O)Nc5nc6ccccc6s5)c4C3)nc2C(=O)O)c(F)c1 , report its measured Population Tubulin-Different-Phenotype (%).
# output 28
